# assay-explanation: inhibitors of TNFa-induced NFkB p65 translocation, primary screen, imaging, HUVEC, MLSMR starter and 10KST1 sets (AID 438);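 note: compound added about 3h40 before a 20 min TNFalpha stimulation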
# condition-context: HUVEC TNFa-induced p65 nuclear translocation; measured here: nuclei count (cytotoxicity indicator), at 2.08 µM
measurement-label: cell count

{"columns": ["compound", "cell count"],
 "data": [
  ["CCOC(=O)NC(O)C(=O)c1cccs1 (stereo not given)", 507],
  ["COc1ccc(-c2nn3c(C4CCCCC4)nnc3s2)cc1OC", 580],
  ["CCCC1C2C(=O)N(c3ccccc3OC)C(=O)C2ON1c1ccccc1 (stereo not given)", 329]
]}

Task item: Identify measured cell count associated with OC1(c2cccc(C(F)(F)F)c2)CCN(c2ncnc3c2[nH]c2ccccc23)CC1
Reply: 447

Task item: Identify measured cell count associated with CN1C2C=C3C(C#N)=C(N)C(C#N)(C#N)[C@@H](c4ccsc4)[C@@H]3C1CC2 (stereo not given in full)
Reply: 589

Task item: Identify measured cell count associated with CCN1CCc2c(C#N)c(N3CCOCC3)nc(NCCO)c2C1
Reply: 566

Task item: Identify measured cell count associated with CN(Cc1ccccc1)Cc1c[nH]c2ccccc12
Reply: 531

Task item: Identify measured cell count associated with Nc1nnnn1/N=C/c1ccccn1
Reply: 568

Task item: Identify measured cell count associated with CCOC(=O)c1c(C)[nH]c(/C(C)=N/O)c1C
Reply: 668

Task item: Identify measured cell count associated with Cn1c(/C(C#N)=C/Nc2ccccn2)nc2ccccc21
Reply: 346

* * *

Here, each record is paired with measured NADPH fluorescence slope data.
# subject-of-test: Voltage-gated potassium channel subunit beta-2 (Rattus norvegicus) (UniProt P62483)
# Sequence (P62483 whole entry, looked up): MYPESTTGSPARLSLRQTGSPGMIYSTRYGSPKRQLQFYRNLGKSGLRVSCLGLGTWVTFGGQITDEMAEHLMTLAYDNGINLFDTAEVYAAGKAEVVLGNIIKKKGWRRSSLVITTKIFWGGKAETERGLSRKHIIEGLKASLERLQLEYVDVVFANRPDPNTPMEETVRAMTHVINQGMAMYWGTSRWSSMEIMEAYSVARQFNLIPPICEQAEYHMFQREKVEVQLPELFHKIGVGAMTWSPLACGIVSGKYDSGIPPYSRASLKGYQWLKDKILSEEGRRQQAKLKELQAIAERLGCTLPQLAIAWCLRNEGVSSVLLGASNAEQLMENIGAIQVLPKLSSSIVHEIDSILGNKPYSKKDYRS
# assay-explanation: KvBeta positive modulators, primary screen, biochemical, NADPH fluorescence (AID 623);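 note: fluorescence intensity change per second fitted from 20 to 320 s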
# condition-context: Recombinant KvBeta, NADPH fluorescence decrease slope, 10 min; at 10 µM; stronger effect = lower value
Just the number, please.

Please review the entries below; each comes with its answer.
{"columns": ["molecule", "data-value"],
 "data": [
  ["Cc1cc(/C(O)=C2\\C(=O)C(=O)N(CCN(C)C)C2c2ccncc2)ccc1OCc1ccccc1 (centres undefined)", "-5.4e-05"],
  ["O=C(O)Cc1ccc(-c2ccccc2)cc1", "-4.7e-05"],
  ["Cc1oc2cc(O)cc(C)c2c(=O)c1-c1cnn(-c2ccccc2)c1", "-5.7e-05"],
  ["COc1cccc(NC(=O)CSC2=C(C#N)C(c3ccco3)C3=C(CCCC3=O)N2)c1 (centres undefined)", "-6.2e-05"],
  ["COc1cc([C@@H]2[C@H]3CNCC=C3C(C#N)=C(N)C2(C#N)C#N)ccc1OC(C)C", "7.5e-06"]
]}

Task item: Identify measured NADPH fluorescence slope associated with Nc1nnc(CC2=CCCCC2)s1
Reply: -3.4e-05

Task item: Identify measured NADPH fluorescence slope associated with CCCCC(=O)O[C@H]1CC[C@H]2[C@@H]3CCc4cc(O)ccc4[C@H]3CC[C@]12C
Reply: -3e-05

Task item: Identify measured NADPH fluorescence slope associated with CCOC(=O)CSC1=C(C#N)C(=O)NC2(CCCCC2)S1
Reply: -4.9e-05

Task item: Identify measured NADPH fluorescence slope associated with CCCCC1(C(=O)OCC)CC(CN2CCOCC2)OC1=O (centres undefined)
Reply: 1.1e-05

Task item: Identify measured NADPH fluorescence slope associated with Cc1cc(C)n(S(=O)(=O)Cc2ccccc2)n1
Reply: -1.7e-05

Task item: Identify measured NADPH fluorescence slope associated with COc1ccc(CNC(=O)c2c(C)cc(=O)oc2C)cc1OC
Reply: -4.8e-05

* * *

# subject-of-test: Voltage-gated potassium channel subunit beta-2 (Rattus norvegicus)
# assay-explanation: KvBeta positive modulators, primary screen, biochemical, NADPH fluorescence (AID 623);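 note: fluorescence intensity change per second fitted from 20 to 320 s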
# condition-context: Recombinant KvBeta, NADPH fluorescence decrease slope, 10 min; at 10 µM; stronger effect = lower value
measurement-label: NADPH fluorescence slope
Just the number, please.

Please review the entries below; each comes with its answer.
{"columns": ["molecule", "data-value"],
 "data": [
  ["CCCOc1cc(CN2CCCCC2)cc(C(C)=O)c1", "-6.5e-05"],
  ["COc1ccc(C2CNC(=O)C2)cc1OC1CCCC1 (stereo not drawn)", -0.000115],
  ["COC(=O)C(NC(C)=O)(Nc1ccccc1)C(=O)OC", "-6.4e-05"],
  ["N#CC1=C(N)OC2=C(C(=O)CCC2)C1CCc1ccccc1 (stereo not drawn)", "-1.3e-05"],
  ["COC1=CC(=O)CC(C)C12Oc1c(Cl)c(OC)cc(OC)c1C2=O (stereo not drawn)", "-3.3e-05"],
  ["COc1cc(C)nc(Oc2ccc(OCCOc3ccc(C)cc3)nn2)n1", "-3.1e-05"]
]}

Task item: Identify measured NADPH fluorescence slope associated with O=C(Nc1ccccn1)NC(C(F)(F)F)C(F)(F)F
Reply: -0.000163

Task item: Identify measured NADPH fluorescence slope associated with CCN=C1SC(C(=O)Nc2ccc(Cl)c(Cl)c2)CC(=O)N1CC (stereo not drawn)
Reply: -0.000131

* * *

# assay-explanation: inhibitors of E-selectin induction by TNFa, primary screen, imaging, HUVEC, immunofluorescence, MLSMR starter and 10KST1 sets (AID 487);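 note: signal is fraction of cell area covered by stained E-selectin grains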
# condition-context: HUVEC TNFalpha-induced E-selectin immunofluorescence imaging, at 2 µM; stronger effect = higher value
Calls of active or inactive are those of the source.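 The calls were made as follows: active = visually confirmed hit in the image check and inhibition above 20%; inconclusive = visually confirmed hit but inhibition not above 20%; inactive = no visual hit in the image check.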
Here, each record is paired with measured inhibition data.

Please review the entries below; each comes with its answer.
{"columns": ["compound", "data-value"],
 "data": [
  ["COCCn1c(N)c(C(=O)NCC2CCCO2)c2nc3ccccc3nc21 (stereo not drawn)", "-74.5% (inactive)"],
  ["CN1CCN(C(=O)CSc2nc(-c3ccncc3)ccc2C#N)CC1", "-21.2% (inactive)"],
  ["Nc1c(Br)cc2oc(-c3ccccc3)nc2c1Br", "-23.5% (inactive)"],
  ["CC(Sc1nc(N2CCCCC2)c2c(c1C#N)CCCC2)C(=O)O (stereo not drawn)", "-96.1% (inactive)"],
  ["COC(=O)c1cc(=O)n2c(-c3ccc(OC)cc3)csc2n1", "-46.8% (inactive)"]
]}

Task item: Identify measured inhibition associated with C[C@]12CC[C@@H]3c4ccc(O)cc4CC[C@H]3[C@@H]1CC[C@@H]2OC(=O)CCC(=O)O
Reply: -5.8% (inactive)

Task item: Identify measured inhibition associated with CC1(C)Cc2c(c(-c3ccccc3)nc(N3CCCC3)c2C(N)=O)CO1
Reply: -130% (inactive)

* * *

# subject-of-test: Alpha-2C adrenergic receptor (Homo sapiens) (UniProt P18825)
# Sequence (P18825 whole entry, looked up): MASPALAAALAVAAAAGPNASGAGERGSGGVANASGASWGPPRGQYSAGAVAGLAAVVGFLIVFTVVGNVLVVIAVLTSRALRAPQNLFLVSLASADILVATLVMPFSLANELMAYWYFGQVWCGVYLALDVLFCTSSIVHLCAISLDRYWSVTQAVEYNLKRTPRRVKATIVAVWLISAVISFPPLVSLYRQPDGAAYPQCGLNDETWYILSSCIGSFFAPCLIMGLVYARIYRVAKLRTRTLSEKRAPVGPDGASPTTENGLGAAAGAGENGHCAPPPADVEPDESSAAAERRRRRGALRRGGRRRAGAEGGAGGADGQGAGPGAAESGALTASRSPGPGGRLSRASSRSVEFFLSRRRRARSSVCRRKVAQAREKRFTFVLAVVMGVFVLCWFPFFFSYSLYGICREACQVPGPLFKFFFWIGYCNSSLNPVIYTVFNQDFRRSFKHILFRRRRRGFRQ
# assay-explanation: modulators of alpha2C/GIRK thallium flux, primary screen, cell-based, HEK293 alpha2C/GIRK1/2 (AID 624);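 note: slope of fluorescence ratio to pre-addition baseline per second over 15 to 24 s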
# condition-context: thallium flux BTC fluorescence, at 10 µM, actives lie on both sides
measurement-label: slope
Just the number, please.

{"columns": ["compound", "slope"],
 "data": [
  ["CCCCNC(=O)c1cc2n(n1)C(C(F)(F)F)CC(c1ccccc1)N2 (stereo not drawn)", 0.00405],
  ["CCN(CC)CCN1C(=O)C(=O)/C(=C(/O)c2ccc(F)cc2)C1c1ccncc1 (stereo not drawn)", 0.00505],
  ["CCN(CC)CCN1C(=O)C(=O)/C(=C(/O)c2ccc(F)cc2)C1c1cccnc1 (stereo not drawn)", 0.00472],
  ["COc1ccc(/C(O)=C2/C(=O)C(=O)N(CCN3CCOCC3)C2c2ccccn2)cc1 (stereo not drawn)", 0.00633],
  ["COc1ccc(OC)c2c1CCC2=O", 0.00599]
]}

Task item: Give the observed slope of CCOC(=O)CC(=O)CSc1nc(N)c(C#N)c(-c2ccc(F)cc2)c1C#N for Alpha-2C adrenergic receptor (Homo sapiens) (UniProt P18825).
Reply: 0.00627

Task item: Give the observed slope of CC1C[C@@]2(NC(=O)NC2=O)C(C)CN1C (stereo partly drawn) for Alpha-2C adrenergic receptor (Homo sapiens) (UniProt P18825).
Reply: 0.00539

Task item: Give the observed slope of CCN(CC)CCNc1nc2c(c(=O)[nH]c(=O)n2C)n1CCOc1ccccc1 for Alpha-2C adrenergic receptor (Homo sapiens) (UniProt P18825).
Reply: 0.00521

* * *

# subject-of-test: Voltage-gated potassium channel subunit beta-2 (Rattus norvegicus)
# assay-explanation: KvBeta positive modulators, primary screen, biochemical, NADPH fluorescence (AID 623);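 note: fluorescence intensity change per second fitted from 20 to 320 s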
# condition-context: Recombinant KvBeta, NADPH fluorescence decrease slope, 10 min; at 10 µM; stronger effect = lower value
measurement-label: NADPH fluorescence slope
Just the number, please.

Please review the entries below; each comes with its answer.
{"columns": ["molecule", "data-value"],
 "data": [
  ["COc1ccc(C(=O)Nc2nc(N)n(-c3ccccc3)n2)cc1OC", -0.000152],
  ["Cn1c(=O)c2c(nc(NCc3ccc4c(c3)OCO4)n2Cc2ccc(F)cc2)n(C)c1=O", "-8.9e-05"],
  ["CCOC(=O)c1nc(N)c(C(=O)OCC)[nH]1", "-7.9e-05"]
]}

Task item: Identify measured NADPH fluorescence slope associated with CCc1nc2sc3c(c2c(=O)o1)CCCC3
Reply: -5.4e-05

Task item: Identify measured NADPH fluorescence slope associated with Cc1ccc(C(=O)C2=C(O)C(=O)N(c3ncccn3)C2c2ccc(Cl)cc2)o1 (stereo not given)
Reply: -1.3e-05
